- test_system: Edg-7 (Homo sapiens, UniProt Q9UBY5)
- Sequence (Q9UBY5 whole entry): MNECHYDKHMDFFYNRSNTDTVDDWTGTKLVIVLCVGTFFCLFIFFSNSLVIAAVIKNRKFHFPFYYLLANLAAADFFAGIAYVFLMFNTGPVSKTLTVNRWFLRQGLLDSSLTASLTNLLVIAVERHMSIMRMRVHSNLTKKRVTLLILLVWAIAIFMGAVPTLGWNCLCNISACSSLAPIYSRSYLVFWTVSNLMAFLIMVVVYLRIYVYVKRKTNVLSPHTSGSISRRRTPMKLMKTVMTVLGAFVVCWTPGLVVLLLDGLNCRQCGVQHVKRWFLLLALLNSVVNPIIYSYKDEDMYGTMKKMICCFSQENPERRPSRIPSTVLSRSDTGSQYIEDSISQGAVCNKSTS
- assay_summary: Calcium mobilization assay (FLIPR), HTC cells expressing Edg 7
- assay_setup: inhibition, calcium mobilization
pIC50: −log10 of the molar value.
We begin with a simple list: items and their reported pIC50.

compound	metric	meas_value
O=C1NN=C(c2ccccc2)C(c2c[nH]c3ccccc23)N1 (centres unmarked) [Compound 121]	pIC50	< 4.70

Any idea what its pIC50 is? The compound is O=C(CC(=O)C(F)(F)F)Nc1cc(-c2ccc(Cl)c(Cl)c2)n[nH]1 [Compound 103]
< 4.70

====

- test_system: Edg-7 (Homo sapiens)
- assay_summary: Calcium mobilization assay (FLIPR), HTC cells expressing Edg 7
- assay_setup: agonist, calcium mobilization
EC50 by entry:

compound	meas_value
COc1cc2c(cc1OC)C(c1c(Cl)cccc1Cl)NC(=O)C2 (stereo not drawn) [Compound 125]	2.5 µM
FC(F)(F)c1ccc2nnc(-c3c(Cl)cccc3Cl)n2c1 [Compound 131]	> 25 µM

As a next step, examine the compound that follows.
Recorded EC50 for FC(F)(F)c1ccc2nnc(-c3cccc(Cl)c3Cl)n2c1 [Compound 129] , please?
> 25 µM

====

- test_system: Edg-6 (Homo sapiens, UniProt O95977)
- Sequence (O95977 1-384): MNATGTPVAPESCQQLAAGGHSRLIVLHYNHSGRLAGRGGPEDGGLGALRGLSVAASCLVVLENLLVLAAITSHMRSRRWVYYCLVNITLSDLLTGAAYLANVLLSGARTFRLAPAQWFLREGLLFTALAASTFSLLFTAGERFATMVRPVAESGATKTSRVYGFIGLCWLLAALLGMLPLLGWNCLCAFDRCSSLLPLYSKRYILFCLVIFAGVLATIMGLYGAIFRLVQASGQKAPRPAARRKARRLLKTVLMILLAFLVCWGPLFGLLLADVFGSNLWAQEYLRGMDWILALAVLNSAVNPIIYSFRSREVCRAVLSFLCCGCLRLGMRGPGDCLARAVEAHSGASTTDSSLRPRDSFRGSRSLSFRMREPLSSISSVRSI
- assay_summary: Calcium mobilization assay (FLIPR), HTC cells expressing Edg 6
- assay_setup: inhibition
pIC50: −log10 of the molar value.
Attribute: pIC50

compound	meas_value
O=C(CC(=O)C(F)(F)F)Nc1cc(-c2ccc(Cl)c(Cl)c2)n[nH]1	< 4.70

Turning now to a further record.
So what's the measured pIC50 for this one? O=C1NN=C(c2ccccc2)C(c2c[nH]c3ccccc23)N1 (centres unmarked)
< 4.70

====

- test_system: Edg-8 (Homo sapiens, UniProt Q9H228)
- Construct: expressed in transfected cells; host or cells: HTC rat hepatoma cells (from the earlier reading)
- Sequence (Q9H228 whole entry): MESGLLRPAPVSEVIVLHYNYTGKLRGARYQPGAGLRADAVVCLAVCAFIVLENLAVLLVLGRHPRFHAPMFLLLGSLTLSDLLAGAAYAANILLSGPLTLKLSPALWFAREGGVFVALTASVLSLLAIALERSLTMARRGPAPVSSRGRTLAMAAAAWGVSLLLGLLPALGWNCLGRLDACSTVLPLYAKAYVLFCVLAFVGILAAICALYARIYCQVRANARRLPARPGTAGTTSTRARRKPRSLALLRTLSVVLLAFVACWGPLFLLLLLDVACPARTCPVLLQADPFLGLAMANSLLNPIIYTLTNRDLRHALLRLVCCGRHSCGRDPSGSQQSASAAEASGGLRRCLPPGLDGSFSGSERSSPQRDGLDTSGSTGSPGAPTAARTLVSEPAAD
- assay_summary: Calcium mobilization assay (FLIPR), HTC cells expressing Edg 8
- Type: cell-based
- assay_setup: agonist
pEC50: −log10 of the molar value.
metric: pEC50

Reported pEC50 for "FC(F)(F)c1ccc2nnc(-c3cccc(Cl)c3Cl)n2c1" : what is it?
< 4.60

Next entry: "FC(F)(F)c1ccc2nnc(-c3c(Cl)cccc3Cl)n2c1"
< 4.60

One more compound: COc1cc2c(cc1OC)C(c1c(Cl)cccc1Cl)NC(=O)C2 (stereo not drawn)
< 4.60

====

- test_system: Edg-5 (Homo sapiens, UniProt O95136)
- Sequence (O95136 whole entry): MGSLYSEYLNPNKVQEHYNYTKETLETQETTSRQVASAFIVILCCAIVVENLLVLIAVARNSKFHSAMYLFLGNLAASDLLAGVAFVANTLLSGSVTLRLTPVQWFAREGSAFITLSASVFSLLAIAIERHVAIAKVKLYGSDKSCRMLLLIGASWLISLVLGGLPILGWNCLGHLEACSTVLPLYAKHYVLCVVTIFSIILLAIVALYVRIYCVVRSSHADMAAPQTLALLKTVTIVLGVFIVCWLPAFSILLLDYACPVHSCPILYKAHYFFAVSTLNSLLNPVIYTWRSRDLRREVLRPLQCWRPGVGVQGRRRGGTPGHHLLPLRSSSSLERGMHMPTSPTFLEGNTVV
- assay_summary: Calcium mobilization assay (FLIPR), HTC cells expressing Edg 5
- assay_setup: inhibition
pIC50: −log10 of the molar value.
The entries below come with measured pIC50 values attached.

molecule	pIC50
O=C1NN=C(c2ccccc2)C(c2c[nH]c3ccccc23)N1 (centres unmarked) [Compound 121]	< 4.70

# evaluate next
Would you kindly share the measured pIC50 for O=C(CC(=O)C(F)(F)F)Nc1cc(-c2ccc(Cl)c(Cl)c2)n[nH]1 [Compound 103] ?
< 4.70

Origin of values: patent US20050113283A1
